Target: T1, Human CD40 antigen (recombinant, BLI) (human, UniProt P25942 21-193)
T1 construct: also called rh-CD40
T1 sequence (P25942 21-193 limits assumed): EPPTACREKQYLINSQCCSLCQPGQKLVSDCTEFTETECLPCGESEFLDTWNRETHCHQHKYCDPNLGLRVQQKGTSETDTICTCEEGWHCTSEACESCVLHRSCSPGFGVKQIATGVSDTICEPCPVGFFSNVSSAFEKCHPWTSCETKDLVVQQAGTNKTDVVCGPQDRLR
Assay: BLI, VHH-His on anti-His tips, human CD40 in solution;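 also: kinetics measured at 30 °C in PBS pH 7.2, association tracked for 200 s, then dissociation followed in PBS lacking CD40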
Recorded measurements of koff, one per entry
experimentalEndpoint: koff (s⁻¹)

>>> recordedresult("pgDD40-HZ-24 (VHH, not shown: small tags and cut ends, also called pgDD40-HG-24) VHH: EVQLVESGGGSVQAGGSLRLSCAASLSTFSNYRMGWFRRAPGKERELVARIEPHGVVDYGDSVKGRFTISRDNAKNTVTVYLHMNSLKPEDTAVYYCNALRLISGRYDPLFSSWGQGTQVTVSS")
"1e-05"
>>> recordedresult("pgDD40-SZ-2 (VHH, not shown: small tags and cut ends) VHH: EVQLVESGGALAQPGGSLRLSCEASATIRSVNAMAWYRQGPGKPREMVANITSGDTTYYADSVKGRFTLSREGARNTVYLQMNSLKPEDTAVYQCNIHYTSTGGIRRDYWGRGTQVTVSS")
"3.59e-06"
>>> recordedresult("pgDD40-SZ-5 (VHH, not shown: small tags and cut ends) VHH: QVQLVESGGALAQPGGSLRLSCEASENVRSVNAMAWYRQGPGKPRELVANITSGDATYYADSVKGRFTLSREGARNTVYLQMNSLKPEDTAVYQCNVHYTSWGGIRRDYWGRGTQVTVSS")
"1e-06"
>>> recordedresult("pgDD40-SZ-1 (VHH, not shown: small tags and cut ends) VHH: QVQLVESGGALAQPGGSLRLSCEASTNVRSVNAMAWYRQGPGKPRELVANITSDDATYYADSVKGRFTLSREGARNTVYLQMNSLKPEDTAVYQCNVHYTSWGGIRRDYWGRGTQVTVSS")
"1e-06"
